system name: Sodium channel protein type 5 subunit alpha (Homo sapiens)
Sequence (Q14524 whole entry): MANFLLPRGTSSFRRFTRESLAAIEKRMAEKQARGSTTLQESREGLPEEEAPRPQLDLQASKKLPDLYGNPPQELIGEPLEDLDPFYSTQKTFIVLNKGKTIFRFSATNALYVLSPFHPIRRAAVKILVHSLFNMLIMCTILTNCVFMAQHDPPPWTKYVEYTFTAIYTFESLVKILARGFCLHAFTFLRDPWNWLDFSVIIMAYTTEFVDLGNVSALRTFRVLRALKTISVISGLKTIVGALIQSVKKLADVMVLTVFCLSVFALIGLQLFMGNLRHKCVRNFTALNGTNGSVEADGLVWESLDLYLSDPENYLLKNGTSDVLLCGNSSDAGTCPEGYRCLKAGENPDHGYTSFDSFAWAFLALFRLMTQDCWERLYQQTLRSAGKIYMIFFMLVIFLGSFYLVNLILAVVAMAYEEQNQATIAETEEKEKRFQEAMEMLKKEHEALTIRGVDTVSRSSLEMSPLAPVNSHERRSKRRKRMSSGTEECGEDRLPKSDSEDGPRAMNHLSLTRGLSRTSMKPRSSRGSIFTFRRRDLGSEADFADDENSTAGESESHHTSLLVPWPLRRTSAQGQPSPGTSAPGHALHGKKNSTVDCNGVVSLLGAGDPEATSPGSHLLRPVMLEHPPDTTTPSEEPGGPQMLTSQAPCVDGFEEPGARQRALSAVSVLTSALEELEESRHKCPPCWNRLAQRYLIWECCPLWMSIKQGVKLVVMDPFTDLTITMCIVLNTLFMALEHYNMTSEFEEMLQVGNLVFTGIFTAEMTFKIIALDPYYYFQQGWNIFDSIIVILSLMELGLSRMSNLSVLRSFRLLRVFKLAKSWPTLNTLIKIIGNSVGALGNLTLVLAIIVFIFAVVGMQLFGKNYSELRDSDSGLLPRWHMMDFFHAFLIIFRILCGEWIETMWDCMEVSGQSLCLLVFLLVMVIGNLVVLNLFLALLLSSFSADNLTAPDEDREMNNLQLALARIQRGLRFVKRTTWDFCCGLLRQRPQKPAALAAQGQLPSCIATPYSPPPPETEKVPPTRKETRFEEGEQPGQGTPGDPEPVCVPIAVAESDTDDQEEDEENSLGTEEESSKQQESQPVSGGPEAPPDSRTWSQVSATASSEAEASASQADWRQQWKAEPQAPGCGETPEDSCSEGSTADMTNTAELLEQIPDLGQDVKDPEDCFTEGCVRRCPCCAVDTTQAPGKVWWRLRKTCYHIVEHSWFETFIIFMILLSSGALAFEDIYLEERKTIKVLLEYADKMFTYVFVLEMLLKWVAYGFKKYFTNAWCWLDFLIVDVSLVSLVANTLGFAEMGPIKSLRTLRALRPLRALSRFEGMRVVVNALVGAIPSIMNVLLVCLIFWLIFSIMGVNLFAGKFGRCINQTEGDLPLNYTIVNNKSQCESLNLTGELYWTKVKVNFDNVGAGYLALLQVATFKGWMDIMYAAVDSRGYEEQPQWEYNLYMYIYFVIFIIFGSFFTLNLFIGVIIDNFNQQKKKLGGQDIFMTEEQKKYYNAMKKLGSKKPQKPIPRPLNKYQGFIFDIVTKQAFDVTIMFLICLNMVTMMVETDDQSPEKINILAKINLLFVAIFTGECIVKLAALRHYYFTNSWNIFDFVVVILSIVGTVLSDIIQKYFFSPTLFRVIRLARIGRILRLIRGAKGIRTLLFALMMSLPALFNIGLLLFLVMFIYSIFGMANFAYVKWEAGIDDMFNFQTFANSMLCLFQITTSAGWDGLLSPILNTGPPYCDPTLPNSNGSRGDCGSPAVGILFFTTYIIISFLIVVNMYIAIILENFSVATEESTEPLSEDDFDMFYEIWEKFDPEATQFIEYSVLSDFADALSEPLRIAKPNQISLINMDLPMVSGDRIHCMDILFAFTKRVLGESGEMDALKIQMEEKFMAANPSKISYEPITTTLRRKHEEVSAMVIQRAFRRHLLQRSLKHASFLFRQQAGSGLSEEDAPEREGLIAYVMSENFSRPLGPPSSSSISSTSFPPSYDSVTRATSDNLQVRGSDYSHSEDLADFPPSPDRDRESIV
experimental protocol: Inhibition of Nav1.5 (unknown origin)
quantity name: IC50

O=c1n(CCCN2C3CCC2(F)CC(OCc2ccccc2F)C3)nc2n1CCC2 (stereo not drawn) yielded IC50 of > 30 µM

O=c1n(CCCN2C3CCC2(F)CC(COc2ccccc2F)C3)nc2ccccn12 (racemic) yielded IC50 of > 30 µM

O=c1n(CCCN2C3CCC2(F)CC(OCc2ccccc2F)C3)nc2ccccn12 (stereo not drawn) yielded IC50 of > 30 µM
